system: IGROV-ET; experiment: SRB colorimetric assay of cell growth and viability, IGROV-ET; format: cell-based, human; conditions: 48 hours exposure; read-out: LC50 IGROV-ET
Where a SMILES comes first, the peptide text is derived from it. Bridges are numbered along the chain shown (N, C = ends). [ ]: non-standard residue; d: D form. The star is where a group is joined. d(aIle) = CC[C@H](C)[C@@H](N)C(=O)O; d(aThr) = C[C@@H](O)[C@@H](N)C(=O)O; Hexanoyl(5-Me) = CC(C)CCCC(=O)*; Orn = NCCC[C@H](N)C(=O)O; Dhb = C/C=C(\N)C(=O)O

MOLECULE	SCALE_UNIT	OP	CC50
C/C=C1\NC(=O)[C@H](Cc2ccccc2)NC(=O)[C@@H](C(C)C)NC(=O)[C@@H]([C@@H](C)CC)NC(=O)[C@H](NC(=O)[C@H](NC(=O)[C@H](CCCN)NC(=O)[C@H]2CCCN2C(=O)[C@H](NC(=O)[C@H](CCC(N)=O)NC(=O)[C@@H](NC(=O)[C@H](NC(=O)CCCC(C)C)C(C)C)[C@@H](C)O)C(C)C)[C@@H](C)CC)[C@@H](C)OC(=O)[C@H](C(C)C)NC1=O [Compound 48, [Gln^11]-KF] ({Hexanoyl(5-Me)}-[dV]TQ[dV][dP][Orn][d(aIle)][d(aThr)][d(aIle)][dV]F[Dhb]V; ester 8-C)	µM	=	6.64
C/C=C1\NC(=O)[C@H](Cc2ccccc2)NC(=O)[C@@H](C(C)C)NC(=O)[C@@H]([C@@H](C)CC)NC(=O)[C@H](NC(=O)[C@H](NC(=O)[C@H](CCCN)NC(=O)[C@H]2CCCN2C(=O)[C@H](NC(=O)[C@@H](NC(=O)[C@@H](NC(=O)[C@@H](CC(C)C)NC(=O)CCCC(C)C)[C@@H](C)O)C(C)C)C(C)C)[C@@H](C)CC)[C@@H](C)OC(=O)[C@H](C(C)C)NC1=O [Compound 35, [D-Leu^13]-KF]	µM	=	3.26
C/C=C1\NC(=O)[C@H](Cc2ccccc2)NC(=O)[C@@H](C(C)C)NC(=O)[C@@H]([C@@H](C)CC)NC(=O)[C@H](NC(=O)[C@H](NC(=O)[C@H](CCCN)NC(=O)[C@H]2CCCN2C(=O)[C@H](NC(=O)[C@@H](NC(=O)CNC(=O)CCCC(C)C)C(C)C)C(C)C)[C@@H](C)CC)[C@@H](C)OC(=O)[C@H](C(C)C)NC1=O [Compound 53, [Gly^12, noD-Val^13]-KF] ({Hexanoyl(5-Me)}-GV[dV][dP][Orn][d(aIle)][d(aThr)][d(aIle)][dV]F[Dhb]V; ester 7-C)	µM	=	7.49
C/C=C1\NC(=O)[C@H](Cc2ccccc2)NC(=O)[C@@H](C(C)C)NC(=O)[C@@H]([C@@H](C)CC)NC(=O)[C@H](NC(=O)[C@H](NC(=O)[C@H](CCCN)NC(=O)[C@H]2CCCN2C(=O)[C@H](NC(=O)[C@@H](NC(=O)[C@H](CCC(=O)O)NC(=O)CCCC(C)C)C(C)C)C(C)C)[C@@H](C)CC)[C@@H](C)OC(=O)[C@H](C(C)C)NC1=O [Compound 56, [Glu^12, noD-Val^13]-KF] ({Hexanoyl(5-Me)}-EV[dV][dP][Orn][d(aIle)][d(aThr)][d(aIle)][dV]F[Dhb]V; ester 7-C)	µM	≥	7.11
